System: H9c2 cardiomyocytes, 2-deoxyglucose stress, ATP luminescence, 2 h
Experiment: H9c2 cell survival under 2-deoxyglucose stress – uHTS hits, dose response (AID 588780)
The source made the active and inactive calls.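 The calls were made as follows: active = compounds whose fitted half-maximal concentration in the cell-protection dose series is at or below a set limit; inactive = the rest.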
Choose one outcome from this list and give only that: yes for active, no for inactive

Solved cases below.
> print(dat)
                                   molecule                             system.tested  class.name
1  O=C(N/N=C/c1ccc(-c2cccc([N+](=O)[O-])c2)o1)c1ccc([N+](=O)[O-])cc1  H9c2 cardiomyocytes, 2-deoxyglucose stress, ATP luminescence, 2 h          no
2  COc1cc(C(=O)NCC(=O)N/N=C/c2ccc(-c3cccc([N+](=O)[O-])c3)o2)cc(OC)c1OC  H9c2 cardiomyocytes, 2-deoxyglucose stress, ATP luminescence, 2 h         yes
3  CC1(c2ccccc2)NC(=O)N(CC(=O)Nc2cccc(/C=C/c3ccccn3)c2)C1=O (stereo not given)  H9c2 cardiomyocytes, 2-deoxyglucose stress, ATP luminescence, 2 h         yes
4  COc1cc(C(=O)Nc2ccc(NC(=O)c3cccc(Cl)c3)nc2)cc(OC)c1OC  H9c2 cardiomyocytes, 2-deoxyglucose stress, ATP luminescence, 2 h         yes
5  Cc1ccc(C(=O)OCC(=O)Nc2sccc2C(N)=O)cc1NC(=O)c1ccco1  H9c2 cardiomyocytes, 2-deoxyglucose stress, ATP luminescence, 2 h          no

Would you mind telling me which call this test gave `Cc1ccc(NC(=O)c2nc[nH]c2C(=O)NCCCNC(=O)c2[nH]cnc2C(=O)Nc2ccc(C)cc2)cc1` ?
yes

// return assay outcome for CC(C)COP(=O)(OCC(C)C)C(Nc1ccccc1)c1ccc2c(c1)OCO2 (stereo not given)
no

// param item: `CC(C)(C)OC(=O)N1CCC(NC(=O)c2nc[nH]c2C(=O)NCC(=O)OCc2ccccc2)CC1` ; yields the recorded call
no

Test call for this molecule, please: `Cc1cc(CNC(=O)COC(=O)Cn2[nH]c(=O)c3ccccc3c2=O)cc(C)c1O`
yes

# fetch the recorded call for `Cc1ccc(NC(=O)c2nc[nH]c2C(=O)NCCCCCNC(=O)OC(C)(C)C)cc1` here
no

Recorded test call requested for COc1ccc2[nH]c(=O)c(CN(CCc3ccccc3)Cc3nnnn3CC3CCCO3)cc2c1 (stereo not given)
no

How was `CCOc1ccc(C(=O)Nc2cccc(-c3nc4cccnc4o3)c2)cc1Cl` classified in this test?
no

Please indicate how the test categorized `CCOc1cc(/C=N/NC(N)=O)cc(Br)c1OCC(=O)Nc1cccc2ccccc12` .
no

# fetch the recorded call for `Cc1ccc2sc(NNC(=O)c3ccc4c(c3)OCCO4)nc2c1C` here
no

// param item: CN(C)C(=O)C1C2NC(=S)N(c3cccc(Cl)c3)C1(C)Oc1ccc(Cl)cc12 (stereo not given) ; yields the recorded call
no

State the result this test recorded for CC1Cc2ccccc2N1C(=O)Cn1nc(C(=O)O)c2ccccc2c1=O (stereo not given) .
no

State the result this test recorded for `COC(=O)c1ccccc1S(=O)(=O)N(Cc1ccco1)Cc1cc2cc(OC)ccc2[nH]c1=O` .
yes

For `Oc1ccc(Br)cc1C=Nc1ccc2[nH]ncc2c1` , what call appears in the results of this test?
no

Any idea what this test logged for `O=C(COC(=O)c1cc(-c2cccnc2)nc2ccccc12)Nc1ccc(F)cc1F` ?
yes

Can you look up the reported call for `Cc1cc(NC(=O)COc2nnc(-c3ccccc3)c3ccccc23)no1` for me?
no
